Overview of recorded inhibition at 0.25 µM for various compounds
SYSTEM_UNDER_TEST: UniProt:Q99497
PROTOCOL: Hit validation and pure-compound testing in the PARK7 FP assay with JYQ-107
Format: biochemical
SETUP_CONDITIONS: crude compounds, 0.25 µM; read-out: % Inhibition 0.25 µM
Supply the numeric figure in %, leaving out any unit text.

N#CN1CC[C@@H](C(=O)Nc2nc3c(s2)CN(C(=O)C2CC(=O)N(C4CCCCCC4)C2)CC3)C1 (stereo partly shown)	43.1
Cc1cc(C(=O)N2CCc3nc(NC(=O)[C@@H]4CCN(C#N)C4)sc3C2)ccc1Br	58
COc1ccc(C(=O)N2CCc3nc(NC(=O)[C@@H]4CCN(C#N)C4)sc3C2)cc1S(=O)(=O)N1CCCCCC1	76.3

# compound CC1CCCCN1S(=O)(=O)c1ccccc1C(=O)N1CCc2nc(NC(=O)[C@@H]3CCN(C#N)C3)sc2C1 (stereo partly shown) ; its inhibition at 0.25 µM = 57.7

---

Overview of recorded inhibition at 1.25 µM for various compounds
SYSTEM_UNDER_TEST: PARK7 (Homo sapiens)
PROTOCOL: High-throughput screen of the crude compound library, PARK7 fluorescence polarization (FP) assay with FP reagent JYQ-107
Format: biochemical
SETUP_CONDITIONS: 1.25 µM, crude compound library; read-out: HTS FP assay %Inhibition (1.25 µM)
Supply the numeric figure in %, leaving out any unit text.

Use the examples below as a reference point.
N#CN1CC[C@@H](C(=O)Nc2nc3c(s2)CN(C(=O)c2ccc(N4CCCC4)c(F)c2)CC3)C1	86.4
N#CN1CC[C@@H](C(=O)Nc2nc3c(s2)CN(C(=O)c2cc(Cn4cc(Cl)cn4)cs2)CC3)C1	86.7
N#CN1CC[C@@H](C(=O)Nc2nc3c(s2)CN(C(=O)c2cccc(S(=O)(=O)NCc4cccs4)c2)CC3)C1	90
N#CN1CC[C@@H](C(=O)Nc2nc3c(s2)CN(C(=O)C2CC(=O)N(c4cnccn4)C2)CC3)C1 (stereo partly drawn)	71.4
Cc1ccc([C@@H]2C[C@H]2C(=O)N2CCc3nc(NC(=O)[C@@H]4CCN(C#N)C4)sc3C2)s1	94.2
COc1cc(C(=O)N2CCc3nc(NC(=O)[C@@H]4CCN(C#N)C4)sc3C2)ccc1OCc1c(C)noc1C	72.7
N#CN1CC[C@@H](C(=O)Nc2nc3c(s2)CN(C(=O)C2CCCN(c4ncccn4)C2)CC3)C1 (stereo partly drawn)	71.1
N#CN1CC[C@@H](C(=O)Nc2nc3c(s2)CN(C(=O)c2ccc(-c4ccccn4)s2)CC3)C1	89.2
N#CN1CC[C@@H](C(=O)Nc2nc3c(s2)CN(C(=O)c2ccc(S(=O)(=O)Nc4cccc(Cl)c4F)o2)CC3)C1	72.5
N#CN1CC[C@@H](C(=O)Nc2nc3c(s2)CN(C(=O)c2cccn2-c2c(Cl)cccc2Cl)CC3)C1	69.2

Shifting focus to the compound that follows.
inhibition at 1.25 µM on PARK7 (Homo sapiens) for N#CN1CC[C@@H](C(=O)Nc2nc3c(s2)CN(C(=O)c2ccc(CN4CCOCC4)cc2)CC3)C1 is 86.4

---

SYSTEM_UNDER_TEST: PARK7 (Homo sapiens, UniProt Q99497)
Sequence (Q99497 1-189): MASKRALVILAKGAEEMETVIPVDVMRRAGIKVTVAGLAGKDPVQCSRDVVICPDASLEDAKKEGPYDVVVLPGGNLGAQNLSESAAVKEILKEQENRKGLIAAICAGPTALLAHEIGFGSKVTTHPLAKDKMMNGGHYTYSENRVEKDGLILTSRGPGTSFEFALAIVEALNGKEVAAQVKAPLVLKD
PROTOCOL: Hit validation and pure-compound testing in the PARK7 FP assay with JYQ-107
Type: biochemical
SETUP_CONDITIONS: pure compounds, 1 µM
Overview of recorded inhibition at 1 µM for various compounds
Supply the numeric figure in %, leaving out any unit text.

# compound N#CN1CC[C@@H](C(=O)Nc2nc3c(s2)CN(C(=O)CN2CCNCC2)CC3)C1 ; its inhibition at 1 µM = 59.9

# compound N#CN1CC[C@@H](C(=O)Nc2nc3c(s2)CN(C(=O)CN=[N+]=[N-])CC3)C1 [JYQ-88, reference compound] ; its inhibition at 1 µM = 83.2

# compound COc1ccc(C(=O)N2CCc3nc(NC(=O)[C@@H]4CCN(C#N)C4)sc3C2)cc1S(=O)(=O)N1CCCCCC1 ; its inhibition at 1 µM = 95.4

# compound Cc1csc(-c2cccc(C(=O)N3CCc4nc(NC(=O)[C@@H]5CCN(C#N)C5)sc4C3)c2)n1 ; its inhibition at 1 µM = 95.6

---

SYSTEM_UNDER_TEST: UniProt Q99497
PROTOCOL: Hit validation and pure-compound testing in the PARK7 FP assay with JYQ-107
Assay type: biochemical
SETUP_CONDITIONS: crude compounds, 0.25 µM; read-out: % Inhibition 0.25 µM
Assign 1 (yes) whenever inhibition at 0.25 µM does not fall below 60%; assign 0 (no) whenever it does.

See these solved cases before continuing.
N#CN1CC[C@@H](C(=O)Nc2nc3c(s2)CN(C(=O)c2cnn(-c4ccc(Br)cc4)c2)CC3)C1	1 (yes)
CN(CC1CC1)c1ccc(C(F)(F)F)cc1C(=O)N1CCc2nc(NC(=O)[C@@H]3CCN(C#N)C3)sc2C1	0 (no)
N#CN1CC[C@@H](C(=O)Nc2nc3c(s2)CN(C(=O)c2cccc(Oc4ccc(Cl)cc4)n2)CC3)C1	0 (no)
N#CN1CC[C@@H](C(=O)Nc2nc3c(s2)CN(C(=O)c2cnn(-c4ccccc4)n2)CC3)C1	0 (no)

Q: Quick check: does N#CN1CC[C@@H](C(=O)Nc2nc3c(s2)CN(C(=O)c2csc(C4CC4)n2)CC3)C1 have inhibition at 0.25 µM greater than or equal to 60%?
A: 0 (no)

Q: Quick check: does N#CN1CC[C@@H](C(=O)Nc2nc3c(s2)CN(C(=O)c2cccc(-c4ncon4)c2)CC3)C1 have inhibition at 0.25 µM greater than or equal to 60%?
A: 1 (yes)

Q: Quick check: does Cc1ccc(-c2cc(C(=O)N3CCc4nc(NC(=O)[C@@H]5CCN(C#N)C5)sc4C3)n[nH]2)s1 have inhibition at 0.25 µM greater than or equal to 60%?
A: 0 (no)

---

SYSTEM_UNDER_TEST: PARK7 (Homo sapiens)
Sequence (Q99497 1-189): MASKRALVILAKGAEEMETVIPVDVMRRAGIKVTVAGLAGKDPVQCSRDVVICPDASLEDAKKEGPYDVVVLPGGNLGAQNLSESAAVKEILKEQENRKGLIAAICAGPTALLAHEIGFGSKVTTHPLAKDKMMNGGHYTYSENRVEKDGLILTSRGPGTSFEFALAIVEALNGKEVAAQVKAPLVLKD
PROTOCOL: High-throughput screen of the crude compound library, PARK7 fluorescence polarization (FP) assay with FP reagent JYQ-107
Assay type: biochemical
SETUP_CONDITIONS: 1.25 µM, crude compound library, FP reagent JYQ-107; read-out: HTS FP assay %Inhibition (1.25 µM)
Assign y whenever inhibition at 1.25 µM does not fall below 70%; assign n whenever it does.

See these solved cases before continuing.
N#CN1CC[C@@H](C(=O)Nc2nc3c(s2)CN(C(=O)CCCCCBr)CC3)C1 [compound 412]	n
N#CN1CC[C@@H](C(=O)Nc2nc3c(s2)CN(C(=O)c2ccc(-c4ncon4)cc2)CC3)C1 [compound 379]	y
CC1=NN(c2cccc(Br)c2)C(=O)C1CC(=O)N1CCc2nc(NC(=O)[C@@H]3CCN(C#N)C3)sc2C1 (some centres unmarked) [compound 364]	y
CN1CCC(C(=O)N2CCc3nc(NC(=O)[C@@H]4CCN(C#N)C4)sc3C2)CC1 [compound 474]	y

Q: Quick check: does CSCCC(NC(C)=O)C(=O)N1CCc2nc(NC(=O)[C@@H]3CCN(C#N)C3)sc2C1 (some centres unmarked) [compound 388] have inhibition at 1.25 µM greater than or equal to 70%?
A: n

Q: Quick check: does N#CN1CC[C@@H](C(=O)Nc2nc3c(s2)CN(C(=O)CNC(=O)c2ccccc2)CC3)C1 [compound 406] have inhibition at 1.25 µM greater than or equal to 70%?
A: y

Q: Quick check: does COc1cc(CC(=O)N2CCc3nc(NC(=O)[C@@H]4CCN(C#N)C4)sc3C2)ccc1O [compound 437] have inhibition at 1.25 µM greater than or equal to 70%?
A: y

Q: Quick check: does N#CN1CC[C@@H](C(=O)Nc2nc3c(s2)CN(C(=O)c2ccc(CBr)cc2)CC3)C1 [compound 414] have inhibition at 1.25 µM greater than or equal to 70%?
A: n

Q: Quick check: does C#CCCCC(=O)N1CCc2nc(NC(=O)[C@@H]3CCN(C#N)C3)sc2C1 [compound 416] have inhibition at 1.25 µM greater than or equal to 70%?
A: y

Q: Quick check: does N#CN1CC[C@@H](C(=O)Nc2nc3c(s2)CN(C(=O)C2CCCCN2S(=O)(=O)c2ccc(Br)s2)CC3)C1 (some centres unmarked) [compound 377] have inhibition at 1.25 µM greater than or equal to 70%?
A: y

Q: Quick check: does N#CN1CC[C@@H](C(=O)Nc2nc3c(s2)CN(C(=O)c2cc(-c4cccc(Cl)c4)no2)CC3)C1 [compound 453] have inhibition at 1.25 µM greater than or equal to 70%?
A: n

Data provenance: paper PMC11129182
